Target: T1, Human OSCAR-ECD (recombinant extracellular domain of human OSCAR) (human, UniProt Q8IYS5 19-218)
T1 construct: also called OSACAR-ECD
T1 chain: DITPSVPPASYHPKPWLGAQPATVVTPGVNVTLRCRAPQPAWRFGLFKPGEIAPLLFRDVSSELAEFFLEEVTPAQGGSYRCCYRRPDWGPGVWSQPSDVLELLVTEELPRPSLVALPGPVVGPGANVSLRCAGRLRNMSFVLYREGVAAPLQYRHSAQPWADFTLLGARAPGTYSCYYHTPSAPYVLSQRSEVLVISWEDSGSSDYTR
Test: SPR (Biacore T100), mAb coupled or captured on chip, OSCAR-ECD injected, 1:1 fit
reported-property: Kd (µM)
One number for each entry, in µM.

>>> quantitative_result("7F21A1 (antibody, V domains shown, Mouse anti-human OSCAR mAb; The heavy chain entry covers only VH-CH1 and the start of the hinge) VH: QVQLQQSGAELVRPGTSVKVSCRSSGYAFTNYLIEWIKQRPGQGLEWIGVITPGSGGTNYNENFKDKATLTADKSSNTAYMQLTSLTSDDSAVYFCARSFDYDGAWFAYWGQGTLVTVSA VL: DIQMTQSPASLSVSVGETVTITCRASEKIYSNLAWYQQKQGKSPQLLVYAATNLADGVPSRFSGSGSGTQFSLKINNLQSEDFGSYYCQHFWGTPWTFGGGTKLEIKR")
0.018
>>> quantitative_result("16F56 (antibody, V domains shown, Fully human mAb from HuMab mice; also called 16F56 (Hu); 16F56A2) VH: QVQLVQSGAEVKKPGSSVKVSCKASGGTFSNYAISWVRQAPGQGLEWMGRIIPILGIAHNAQKFQDRVTITADKSTSTAYMELSSLRSEDTAVYYCASPSSGKGLPYWFFDLWGRGTLVTVSS VL: DIQMTQSPSFLSASVGDRVTITCRASQSISSYLNWYQQKPGKAPKLLIYAASSLQSGVPSRFSGSGSGTDFTLTISSLQPEDFATYYCQCGYSTPLTFGGGTKVEIKR")
0.0003

// returns reported Kd for input 7F10A1 (antibody, V domains shown, Mouse anti-human OSCAR mAb; The heavy chain entry covers only VH-CH1 and the start of the hinge) VH: QVQLQQSGAELARPGASVKLSCKASGYTFTDNYINWVKQRTGQGLEWIGEIYPGSGNTYYNEKFKGKATLTADKSSSTAYMQLSSLTSEDSAVYFCARSANRYDRGDFDYWGQGTPLTVSS VL: QILLTQSPAIMSASPGEKVTMTCSASSSVSYMHWYQQKPGSSPKPWIYDTSNLASGFPARFSGSGSGTSYSLIISSMEAEDAATYYCHQRSSYPYTFGGGTKLEIKR 0.018
